biological target: Cdk12/CycK (Homo sapiens); construct: GST (TEV site) (N, cleaved yes); made in house; host or cells: Sf9 insect cells, co-expressed with S. cerevisiae CAK1; assay: radioactive in vitro kinase assay, Cdk12/CycK; type: biochemical; settings: 0, 0.1, 1, 10, 100 μM compound, 0.2 μM Cdk12, 0.2 mM ATP, His-c-Myc, 20 min
Sequence (Q9NYV4 714-1063): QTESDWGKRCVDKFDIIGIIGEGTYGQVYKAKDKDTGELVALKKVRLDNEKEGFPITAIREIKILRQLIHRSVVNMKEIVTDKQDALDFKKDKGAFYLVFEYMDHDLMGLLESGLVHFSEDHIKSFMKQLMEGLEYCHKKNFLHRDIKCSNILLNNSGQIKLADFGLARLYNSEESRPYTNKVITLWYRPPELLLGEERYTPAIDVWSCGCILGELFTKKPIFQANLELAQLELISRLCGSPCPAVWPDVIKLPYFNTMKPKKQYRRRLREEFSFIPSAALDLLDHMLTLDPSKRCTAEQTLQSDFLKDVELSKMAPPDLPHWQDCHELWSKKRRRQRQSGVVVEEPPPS
Sequence (O75909 1-267 partner limits assumed): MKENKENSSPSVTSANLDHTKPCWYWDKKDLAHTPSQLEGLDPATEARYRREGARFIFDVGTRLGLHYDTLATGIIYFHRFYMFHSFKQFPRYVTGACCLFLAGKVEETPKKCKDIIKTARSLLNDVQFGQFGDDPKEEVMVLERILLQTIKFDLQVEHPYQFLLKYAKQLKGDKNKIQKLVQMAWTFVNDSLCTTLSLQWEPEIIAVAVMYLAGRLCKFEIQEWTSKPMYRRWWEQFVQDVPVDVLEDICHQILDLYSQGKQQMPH
recorded_metric: inhibitory effect on Cdk12/CycK activity, in words

Below: 7 compounds and their reported inhibitory effect on Cdk12/CycK activity, in words.
* CN(C)C/C=C/C(=O)Nc1ccc(C(=O)N2CCC[C@@H](Nc3ncc(Cl)c(-c4c[nH]c5ccccc45)n3)C2)cc1 | modest effects
* CN1CC[C@H](c2c(O)cc(O)c3c(=O)cc(-c4ccccc4Cl)oc23)[C@H](O)C1 | modest effects
* COC[C@@H](C)NC1CCC(Nc2cc(-c3cccc(NCC4(C#N)CCOCC4)n3)c(Cl)cn2)CC1 (some centres unmarked) | highest potency
* CN(C)C/C=C/C(=O)Nc1ccc(C(=O)Nc2cccc(Nc3ncc(Cl)c(-c4c[nH]c5ccccc45)n3)c2)cc1 | modest effects
* CCc1cnn2c(NCc3ccc[n+]([O-])c3)cc(N3CCCC[C@H]3CCO)nc12 | highest potency
* Cn1cc(-n2cnc3c(NCc4nc5cc(Cl)c(Cl)cc5[nH]4)nc(N4CCOCC4)nc32)cn1 | modest effects
* CN(C)C(=O)c1cc2cnc(Nc3ccc(N4CCNCC4)cn3)nc2n1C1CCCC1 | no inhibitory effect

Shift focus to the following entry.
Data request: Jot down inhibitory effect on Cdk12/CycK activity, in words (Cdk12/CycK (Homo sapiens)) of "CC(=O)c1c(C)c2cnc(Nc3ccc(N4CCNCC4)cn3)nc2n(C2CCCC2)c1=O" .
Data returned: no inhibitory effect
